Reported Activity by item:
System: Rattus norvegicus
test: Anesthetic effect in iv dosed Sprague-Dawley rat assessed as dose required to cause loss of righting reflex
Format: functional
Express your answer in mg/kg, writing the number without its unit.

Below are worked cases with known answers.
CN(C)C1(c2ccccc2Cl)CCCCC1=O.Cl (racemic) :: 43
CC(C)OC(=O)CCCCNC1(c2ccccc2Cl)CCCCC1=O.Cl (racemic) :: 38
CC(C)OC(=O)CCN[C@]1(c2ccccc2Cl)CCCCC1=O.Cl :: 74
CC(C)OC(=O)CCCNC1(c2ccccc2Cl)CCCCC1=O.Cl (racemic) :: 42
CCOC(=O)CCN(C)C1(c2ccccc2Cl)CCCCC1=O (racemic) :: 95
CCOC(=O)CCCNC1(c2ccccc2Cl)CCCCC1=O.Cl (racemic) :: 24

Lab note: next compound to report on.
State the measured Activity (Rattus norvegicus) of CNC1(c2ccccc2Cl)CCCCC1=O (racemic)
17

====

Test system: Rattus norvegicus
test: Anesthetic effect in iv dosed Sprague-Dawley rat assessed as dose required to cause loss of righting reflex
Format: functional
Reported Activity by item:
Respond with a number, then the unit of measure.

Below are worked cases with known answers.
CCOC(=O)CCCCNC1(c2ccccc2Cl)CCCCC1=O.Cl (racemic) :: 34 mg/kg
Cl.O=C1CCCC[C@]1(NCCCO)c1ccccc1Cl :: 21 mg/kg
CN(C)[C@]1(c2ccccc2Cl)CCCCC1=O.Cl :: 32 mg/kg

Output Activity of CCOC(=O)CCNC1(c2ccccc2Cl)CCCCC1=O.Cl (racemic)
48 mg/kg

Output Activity of CCCOC(=O)CCNC1(c2ccccc2Cl)CCCCC1=O.Cl (racemic)
131 mg/kg

====

System: Rattus norvegicus
test: Anesthetic effect in iv dosed Sprague-Dawley rat assessed as dose required to cause loss of righting reflex
Type: functional
metric: Activity (mg/kg)
Express your answer in mg/kg, writing the number without its unit.

Below are worked cases with known answers.
CCCOC(=O)CCCCNC1(c2ccccc2Cl)CCCCC1=O.Cl (racemic) :: 82
CC(C)OC(=O)CCN[C@@]1(c2ccccc2Cl)CCCCC1=O.Cl :: 71
CCCOC(=O)CCCNC1(c2ccccc2Cl)CCCCC1=O.Cl (racemic) :: 137
CC(=O)OCCCN[C@]1(c2ccccc2Cl)CCCCC1=O.Cl :: 26
CCOC(=O)CCN[C@]1(c2ccccc2Cl)CCCCC1=O.Cl :: 59

Lab note: next molecule to report on.
Output Activity of CC(C)OC(=O)CCNC1(c2ccccc2Cl)CCCCC1=O.Cl (racemic)
33
